src = patent US9840510B1

# PROTOCOL: Compound solubility in water
# Type: physicochemical
Examples of molecules with documented solubility follow.
Give the quantity in µg/mL, number only.

Determine from records and report solubility for Cc1cc(-c2ccc(F)cc2C#N)nc2c(C(=O)N[C@H](C)C3CC3)cnn12
4.5

Determine from records and report solubility for Cc1cc(-c2cccc(C#N)c2)nc2c(C(=O)N[C@@H](C)C3CC3)cnn12
2.1

Others:
Determine from records and report solubility for Cc1cc(-c2ccns2)nc2c(C(=O)NC(C3CC3)C(F)(F)F)cnn12 (centres unmarked)
0.7

Determine from records and report solubility for Cc1cc(-c2cc(C)n3ncc(C(=O)N[C@H](C4CC4)C(F)(F)F)c3n2)on1
1.5

Determine from records and report solubility for COc1c(F)cccc1-c1cc(C)n2ncc(C(=O)NC(C)C(F)(F)F)c2n1 (centres unmarked)
1.1

====

# PROTOCOL: Compound solubility in water
# Type: physicochemical
Examples of compounds with documented solubility follow.
Give the quantity in µg/mL, number only.

Example entries and their recorded answers appear below.
Determine from records and report solubility for Cc1cc(N2CC(C(C)C)OC2=O)nc2c(C(=O)NC(c3ccccc3)C(F)(F)F)cnn12 (centres unmarked) [III-313]
0.1

Determine from records and report solubility for Cc1cc(N2CCCCC2)nc2c(C(=O)NC(C)(C)C3CC3)cnn12 [III-23]
6.8

Determine from records and report solubility for COc1cc(-c2cc(C)n3ncc(C(=O)N[C@@H](C)C4CC4)c3n2)ccc1F [III-145]
0.2

Determine from records and report solubility for Cc1nc(-c2cc(C)n3ncc(C(=O)NC(C4CC4)C(F)(F)F)c3n2)co1 (centres unmarked) [III-249]
0.6

Determine from records and report solubility for Cc1cc(-c2ccc3ocnc3c2)nc2c(C(=O)N[C@@H](C)C(F)(F)F)cnn12 [III-168]
0.3

Determine from records and report solubility for COc1cccc(-c2cc(C)n3ncc(C(=O)N[C@@H](C)C(F)(F)F)c3n2)c1 [III-91]
1.7

Others:
Determine from records and report solubility for COc1cc(F)ccc1-c1cc(C)n2ncc(C(=O)N[C@@H](C)C3CC3)c2n1 [III-146]
0.9

Determine from records and report solubility for Cc1cc(-c2cccc(-c3ncncn3)c2)nc2c(C(=O)NC(C3CC3)C(F)(F)F)cnn12 (centres unmarked) [III-177]
0.2

====

# PROTOCOL: Compound solubility in water
# Assay type: physicochemical
PARAMETER MEASURED: solubility (µg/mL)
Give the quantity in µg/mL, number only.

Example entries and their recorded answers appear below.
Determine from records and report solubility for Cc1cc(-c2ccccc2C#N)nc2c(C(=O)NC(C3CC3)C(F)(F)F)cnn12 (stereo not drawn) [III-211]
0.2

Determine from records and report solubility for Cc1ncc(-c2cc(C)n3ncc(C(=O)N[C@@H](C4CC4)C(F)(F)F)c3n2)o1 [III-248]
0.7

Determine from records and report solubility for Cc1cc(-c2cccc(Cl)n2)nc2c(C(=O)NC(C)C(F)(F)F)cnn12 (stereo not drawn) [III-234]
0.2

Others:
Determine from records and report solubility for Cc1cc(NC2CC2)nc2c(C(=O)NC(C3CC3)C3CC3)cnn12 [III-78]
5.6

Determine from records and report solubility for Cc1cc(-c2cccc(C#N)c2)nc2c(C(=O)NC(C3CC3)C(F)(F)F)cnn12 (stereo not drawn) [III-72]
0.1

Determine from records and report solubility for COc1cc(F)cc(-c2cc(C)n3ncc(C(=O)NC(C)C(F)(F)F)c3n2)c1 (stereo not drawn) [III-410]
0.06

Determine from records and report solubility for Cc1cc(C)n2ncc(C(=O)N[C@@H](C)C3CCCCC3)c2n1 [III-4]
16.1

Determine from records and report solubility for Cc1cc(N2CCN(CC(F)(F)F)C2=O)nc2c(C(=O)NC(C3CC3)C(F)(F)F)cnn12 (stereo not drawn) [III-233]
0.7

====

# PROTOCOL: Compound solubility in water
# Format: physicochemical
If the reported solubility equals or exceeds 0.7 µg/mL, assign TRUE. If not, assign FALSE.

Below are worked cases with known answers.
# bool: solubility of Cc1cc(-c2cc(F)ccc2C#N)nc2c(C(=O)N[C@@H](C)C(F)(F)F)cnn12 >= 0.7 µg/mL
FALSE

# bool: solubility of Cc1cc(-c2cccc(F)c2C#N)nc2c(C(=O)N[C@@H](C)C3CC3)cnn12 >= 0.7 µg/mL
FALSE

# bool: solubility of Cc1cc(C)n2ncc(C(=O)NC3(C4CC4)CC3)c2n1 >= 0.7 µg/mL
TRUE

# bool: solubility of Cc1ccncc1-c1cc(C)n2ncc(C(=O)NC(C)C(F)(F)F)c2n1 (stereo not drawn) >= 0.7 µg/mL
TRUE

# bool: solubility of Cc1cc(-c2occc2C#N)nc2c(C(=O)NC(C3CC3)C(F)(F)F)cnn12 (stereo not drawn) >= 0.7 µg/mL
FALSE

# bool: solubility of Cc1cc(N2CCN(C(C)C)C2=O)nc2c(C(=O)NC(C)(C)C)cnn12 >= 0.7 µg/mL
TRUE

# bool: solubility of CCc1cc(-c2ccccn2)nc2c(C(=O)NC(C)(C)C(F)(F)F)cnn12 >= 0.7 µg/mL
FALSE

Attention now shifts to the item below.
# bool: solubility of Cc1cc(-c2cccc(Cl)n2)nc2c(C(=O)N[C@@H](C)C(F)(F)F)cnn12 >= 0.7 µg/mL
TRUE

====

Examples of compounds with documented solubility follow.
# PROTOCOL: Compound solubility in water
# Format: physicochemical

Determine from records and report solubility for Cc1cc(-c2cc(Cl)ccn2)nc2c(C(=O)NC(C3CC3)C(F)(F)F)cnn12 (stereo not drawn)
0.6 µg/mL

Determine from records and report solubility for Cc1cc(N2CCCN(C(C)C)C2=O)nc2c(C(=O)NC(C)(C)C3CC3)cnn12
23 µg/mL

Others:
Determine from records and report solubility for Cc1cc(-c2ccoc2)nc2c(C(=O)NC(C3CC3)C(F)(F)F)cnn12 (stereo not drawn)
0.5 µg/mL

Determine from records and report solubility for Cc1cc(-c2cccc(Cl)c2)nc2c(C(=O)N[C@@H](C)C3CC3)cnn12
0.9 µg/mL

Determine from records and report solubility for COc1cccc(-c2cc(C)n3ncc(C(=O)NC(C)(C)C(F)(F)F)c3n2)c1
1.5 µg/mL

Determine from records and report solubility for Cc1cc(-c2cncc(F)c2)nc2c(C(=O)N[C@@H](C3CC3)C(F)(F)F)cnn12
2.5 µg/mL

Determine from records and report solubility for Cc1cc(NC2CC2)nc2c(C(=O)NC(C)C(F)(F)F)cnn12 (stereo not drawn)
4 µg/mL

Determine from records and report solubility for Cc1cc(-c2cccnc2)nc2c(C(=O)NC(C(C)C)C(F)(F)F)cnn12 (stereo not drawn)
1.9 µg/mL

Determine from records and report solubility for Cc1cc(-c2ccc3nc[nH]c3c2)nc2c(C(=O)NC(C3CC3)C(F)(F)F)cnn12 (stereo not drawn)
0.3 µg/mL

====

# PROTOCOL: Compound solubility in water
# Assay type: physicochemical
PARAMETER MEASURED: solubility
Answer with the value and then the unit.

Determine from records and report solubility for Cc1cc(N2CCN(C(C)C)C2=O)nc2c(C(=O)NC(C3CC3)C(F)(F)F)cnn12 (stereo not drawn) [III-225]
19.3 µg/mL

Others:
Determine from records and report solubility for Cc1ncc(-c2cc(C)n3ncc(C(=O)N[C@H](C4CC4)C(F)(F)F)c3n2)cc1F [III-380]
0.3 µg/mL

Determine from records and report solubility for Cc1ccc(-c2cc(C)n3ncc(C(=O)N[C@H](C4CC4)C(F)(F)F)c3n2)c(F)n1 [III-372]
1.7 µg/mL

Determine from records and report solubility for Cc1cc(-c2ccccc2)nc2c(C(=O)N[C@@H](C)C3CC3)cnn12 [III-136]
5.1 µg/mL

Determine from records and report solubility for Cc1cc(-c2ccns2)nc2c(C(=O)N[C@@H](C3CC3)C(F)(F)F)cnn12 [III-101]
1.3 µg/mL

Determine from records and report solubility for Cc1nc(-c2cc(C)n3ncc(C(=O)NC(C)(C)C4CC4)c3n2)co1 [III-251]
3.9 µg/mL

Determine from records and report solubility for Cc1cc(-c2ccccn2)n2ncc(C(=O)NC(C)(C)C3CC3)c2n1 [III-17]
2.2 µg/mL

Determine from records and report solubility for Cc1cc(C)n2nc(Cl)c(C(=O)N[C@@H](C)C3CC3)c2n1 [III-34]
10.3 µg/mL

Determine from records and report solubility for Cc1cc(-c2cccnc2)nc2c(C(=O)N[C@H]3CC[C@H](OCC(C)C)CC3)cnn12 [III-39]
4.4 µg/mL

====

# PROTOCOL: Compound solubility in water
# Assay type: physicochemical
Examples of compounds with documented solubility follow.
Give the quantity in µg/mL, number only.

Example entries and their recorded answers appear below.
Determine from records and report solubility for Cc1cc(-c2cncc(Cl)c2)nc2c(C(=O)N[C@H](C3CC3)C(F)(F)F)cnn12
0.7

Determine from records and report solubility for Cc1cc(C)n2ncc(C(=O)NC(CC(C)C)C3CC3)c2n1 (centres unmarked)
25.7

Determine from records and report solubility for Cc1cc(N2CCC(F)(F)CC2)nc2c(C(=O)NC(C)C(F)(F)F)cnn12 (centres unmarked)
4.5

Determine from records and report solubility for Cc1cc(-c2cc(C)n3ncc(C(=O)N[C@H](C4CC4)C(F)(F)F)c3n2)sn1
0.3

Others:
Determine from records and report solubility for Cc1cc(-c2nnc(C(C)C)o2)nc2c(C(=O)N[C@@H](C3CC3)C(F)(F)F)cnn12
0.4

Determine from records and report solubility for Cc1cc(-c2cccc(F)c2)nc2c(C(=O)N[C@H](C)C3CC3)cnn12
0.2

Determine from records and report solubility for Cc1cc(-c2cncc(F)c2)nc2c(C(=O)NC(C3CC3)C(F)(F)F)cnn12 (centres unmarked)
3.4

Determine from records and report solubility for Cc1cc(-c2ccc(F)o2)nc2c(C(=O)NC(C3CC3)C(F)(F)F)cnn12 (centres unmarked)
0.4

Determine from records and report solubility for Cc1cc(-c2cccnc2F)nc2c(C(=O)NC(C3CC3)C(F)(F)F)cnn12 (centres unmarked)
1

Determine from records and report solubility for Cc1cc(-c2ccc(F)c(C(N)=O)c2)nc2c(C(=O)NC(C3CC3)C(F)(F)F)cnn12 (centres unmarked)
1

Determine from records and report solubility for Cc1cc(-c2cccc(F)c2)nc2c(C(=O)N[C@@H](C)C(F)(F)F)cnn12
0.6

Determine from records and report solubility for Cc1cc(-c2cnccc2C(F)(F)F)nc2c(C(=O)N[C@@H](C3CC3)C(F)(F)F)cnn12
13.5

Determine from records and report solubility for Cc1cc(-c2ccc3ocnc3c2)nc2c(C(=O)N[C@H](C3CC3)C(F)(F)F)cnn12
0.5

Determine from records and report solubility for Cc1cc(N2C[C@H](c3ccccc3)OC2=O)nc2c(C(=O)NC(C3CC3)C(F)(F)F)cnn12 (some centres unmarked)
0.2

Determine from records and report solubility for Cc1cc(-c2ccc(F)cc2C#N)nc2c(C(=O)NC(C3CC3)C(F)(F)F)cnn12 (centres unmarked)
0.1

Determine from records and report solubility for Cc1cc(-c2ccccc2C#N)nc2c(C(=O)N[C@@H](C)C(F)(F)F)cnn12
0.6

Determine from records and report solubility for Cc1cc(-c2cccc3ncoc23)nc2c(C(=O)NC(C)(C)C3CC3)cnn12
0.2
